Assay: in vivo
Design: species or system souris
Conditions: mouse, po
Output yes (1) for records whose TD50 at 0.25 h is lower than 400 mg/kg, no (0) for records at or above 400 mg/kg.

Observe how each entry below is paired with its result.
[[record]]
molecule = "CC1(C(=O)O)CC2CCC(C2)C1 (centres unmarked)"
cat = "no (0)"

[[record]]
molecule = "CC1(C(N)=O)CC2CCC(C2)C1 (centres unmarked)"
cat = "yes (1)"

[[record]]
molecule = "CNC(=O)C1(C)CC2CCC(C2)C1 (centres unmarked)"
cat = "no (0)"


Now take the following molecule into account.
# input Find out if reported TD50 at 0.25 h for CC(C)C1(C(N)=O)CC2CCC(C2)C1 (centres unmarked) is less than 400 mg/kg
# output yes (1)

* * *

Tested on: Crise à l'acide B - mercaptopropionique
Assay: B-mercaptopropionic acid seizure test
Format: in vivo, souris
Conditions: oral, 15 min before acide B-mercaptopropionique 60 mg/Kg I.P., mouse; read-out: DE 50 (the source's name)
Binary label based on ED50 with cut-off 70 mg/kg: below gives condition met, not below gives condition not met.

# count of solved cases: 3
[[record]]
compound = "CCC1(C(N)=O)CC2CCC(C2)C1 (centres unmarked)"
cat = "condition met"

[[record]]
compound = "CC1(C(=O)O)CC2CCC(C2)C1 (centres unmarked)"
cat = "condition not met"

[[record]]
compound = "CC1(C(N)=O)CC2CCC(C2)C1 (centres unmarked)"
cat = "condition met"


# input Confirm or reject: ED50 of CC(C)C1(C(N)=O)CC2CCC(C2)C1 (centres unmarked) lies strictly below 70 mg/kg
# output condition not met

* * *

Tested on: Crise pentétrazolique
Test: Pentetrazole seizure test (protection against tonic seizures)
Type: in vivo, souris
Conditions: oral, 15 min before pentétrazole 125 mg/Kg i.p., mouse; read-out: DE 50 (protection contre les crises toniques)
Please respond with reported ED50 for every item in the list.
One number for each entry, in mg/kg.

[[record]]
compound = "CCC1(C(N)=O)CC2CCC(C2)C1 (centres unmarked)"
target_desc = "Crise pentétrazolique"
experimental_endpoint = "ED50"
reported_result = 75

[[record]]
compound = "CNC(=O)C1(C)CC2CCC(C2)C1 (centres unmarked)"
target_desc = "Crise pentétrazolique"
experimental_endpoint = "ED50"
reported_result = 115

[[record]]
compound = "CC(C)C1(C(N)=O)CC2CCC(C2)C1 (centres unmarked)"
target_desc = "Crise pentétrazolique"
experimental_endpoint = "ED50"
reported_result = 120


Hey, can you go through the list below and give me ED50 for every item?
1. CC1(C(=O)O)CC2CCC(C2)C1 (centres unmarked)
2. CC1(C(N)=O)CC2CCC(C2)C1 (centres unmarked)

# output
1: 90; 2: 53
